Data credit: the supplement of paper PMC3545927

# test.system: furin, P09958;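 note: purified furin at 1:10 enzyme:substrate in 50 mM HEPES pH 7.5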
# Sequence (P09958 whole entry): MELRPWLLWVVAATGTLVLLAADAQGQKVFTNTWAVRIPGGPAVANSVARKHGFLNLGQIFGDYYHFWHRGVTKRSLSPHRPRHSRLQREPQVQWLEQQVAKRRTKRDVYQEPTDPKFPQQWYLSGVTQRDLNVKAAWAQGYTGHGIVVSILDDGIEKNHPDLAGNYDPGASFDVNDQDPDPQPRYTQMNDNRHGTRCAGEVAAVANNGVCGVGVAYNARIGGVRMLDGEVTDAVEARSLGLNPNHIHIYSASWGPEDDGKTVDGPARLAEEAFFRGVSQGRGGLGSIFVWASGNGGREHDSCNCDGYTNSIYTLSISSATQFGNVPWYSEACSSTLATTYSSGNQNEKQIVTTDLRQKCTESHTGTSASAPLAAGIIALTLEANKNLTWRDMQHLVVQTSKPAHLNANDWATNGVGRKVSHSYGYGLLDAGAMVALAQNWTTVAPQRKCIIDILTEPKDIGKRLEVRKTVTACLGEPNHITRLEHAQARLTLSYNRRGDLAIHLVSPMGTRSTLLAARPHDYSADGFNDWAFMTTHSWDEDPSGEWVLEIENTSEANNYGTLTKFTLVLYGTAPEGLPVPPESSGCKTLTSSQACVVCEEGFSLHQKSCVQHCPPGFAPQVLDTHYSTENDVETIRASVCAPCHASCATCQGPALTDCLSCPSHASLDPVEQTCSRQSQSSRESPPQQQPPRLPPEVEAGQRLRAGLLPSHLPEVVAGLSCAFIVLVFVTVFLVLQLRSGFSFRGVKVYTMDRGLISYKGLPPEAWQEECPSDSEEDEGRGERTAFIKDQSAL
# protocol: furin cleavage Z-score vs untreated control; higher = more cleavage, active = 3.5 or more, inactive = 1 or less, 8 variable residues between constant flanks
# reported.conditions: 15 min
Some of the results follow. The true hit rate is not given.
readout.kind: furin cleavage Z-score

- CAKNEVFCVQAGNASASA [HC1441]: -0.752
- CAKSNRFRRQAGNASASA [FS-453]: 7.39
- CARNTNRRPQAGNASASA [HC167]: 0.97
- CARHRRVNGTAGNASASA [FS-2492]: -0.477
- CARKKKLVSTAGNASASA [FS-2560]: -1.81
- CARHRRSLRLAGNASASA [FS-1717]: 6.95
- CARKKKTEGTAGNASASA [FS-2423]: 0.416
- CARHRRYKALAGNASASA [FS-2556]: -0.33
- CAAKRRTRRQAGNASASA [FS-1443]: 8.38
- CARHRRGQETAGNASASA [FS-2145]: 0.563
- CAKYNRGRRKAGNASASA [FS-1598]: 1.26
- CAEVVTSYWVAGNASASA [HC2209]: -1.3
- CAHPDATYSRAGNASASA [HC455]: -1.51
- CARHRRALDTAGNASASA [FS-2943]: 5.62
- CAATVCARAQAGNASASA [HC956]: 0.685
